# tested.system: UniProt:Q9R1K6
# assay.remarks: Agonist activity at mouse GPR34 expressed in HEK293A cells cotransfected with chimeric Galphaq/il after 1.5 hrs by alkaline phosphatase tagged-TGFalpha shedding assay
# Assay type: cell-based
# details: HEK293-A
Active and inactive are the calls of the source. No cut-off for these calls is given here.
metric.name: Emax

Consider the following illustrative entries.
Please look up its Emax: CCCCCCCC/C=C\CCCCCCCC(=O)OC[C@@H]1OCC=C[C@@H]1OP(=O)(O)OC[C@@H](N)C(=O)O (single isomer, unassigned)
inactive

For the molecule CCCCCCCC/C=C\CCCCCCCC(=O)OC[C@@H]1OCC=C[C@H]1OP(=O)(O)OC[C@@H](N)C(=O)O (single isomer, unassigned) , what Emax is on record?
inactive

Please look up its Emax: `N[C@@H](COP(=O)(O)OC[C@H]1OCCC[C@H]1OC(=O)CCc1ccc(OCc2cccc(Oc3ccccc3)c2)cc1)C(=O)O`
inactive

Request the reported Emax associated with `N[C@@H](COP(=O)(O)O[C@@H]1C=CCO[C@@H]1COC(=O)CCc1ccccc1OCc1cccc(Oc2ccccc2)c1)C(=O)O`
12.4%

Could you share which Emax value was measured for `N[C@@H](COP(=O)(O)O[C@@H]1CCCO[C@@H]1COC(=O)CCc1ccccc1OCc1cccc(Oc2ccccc2)c1)C(=O)O` ?
14.8%

Look at this molecule and give its reported Emax. `N[C@@H](COP(=O)(O)O[C@@H]1CCCO[C@@H]1COC(=O)CCc1cccc(OCc2cccc(Oc3ccccc3)c2)c1)C(=O)O`
inactive

Recorded Emax of `N[C@@H](COP(=O)(O)O[C@@H]1CCCO[C@@H]1COC(=O)CCc1ccccc1OCc1cccc(Oc2ccc(Cl)cc2)c1)C(=O)O` , please.
16.6%

Given CCCCCCCCCCCOc1ccccc1CCC(=O)O[C@@H]1C=CCO[C@@H]1COP(=O)(O)OCC(N)C(=O)O (single isomer, unassigned) , state its recorded Emax.
inactive

Bench note: what Emax did `N[C@@H](COP(=O)(O)O[C@H]1C=CCO[C@@H]1COC(=O)CCc1ccccc1OCc1cccc(Oc2ccccc2)c1)C(=O)O` show?
11.7%

Sample `N[C@@H](COP(=O)(O)OC[C@H]1OCC=C[C@H]1OC(=O)CCc1ccccc1OCc1cccc(Oc2ccccc2)c1)C(=O)O` — what was its Emax?
16.5%

Answer for every listed entry: what is its Emax? The entries follow.
1. N[C@@H](COP(=O)(O)OC[C@H]1OCCC[C@@H]1OC(=O)CCc1ccccc1OCc1cccc(Oc2ccccc2)c1)C(=O)O
2. CCCCCCCCCCCOc1ccccc1CCC(=O)O[C@@H]1CCCO[C@@H]1COP(=O)(O)OCC(N)C(=O)O (single isomer, unassigned)
3. CCCCCCCCCCCOc1ccccc1CCC(=O)O[C@H]1CCCO[C@@H]1COP(=O)(O)OCC(N)C(=O)O (single isomer, unassigned)
4. N[C@@H](COP(=O)(O)OC[C@H]1OCCC[C@H]1OC(=O)CCc1ccccc1OCc1cccc(Oc2ccccc2)c1)C(=O)O
5. CCCCCCCCCCCOc1ccccc1CCC(=O)OC[C@H]1OCCC[C@@H]1OP(=O)(O)OC[C@H](N)C(=O)O
6. CCCCCCCCCCCOc1ccccc1CCC(=O)O[C@H]1C=CCO[C@@H]1COP(=O)(O)OCC(N)C(=O)O (single isomer, unassigned)
7. CCCCCCCC/C=C\CCCCCCCC(=O)OC[C@@H](O)COP(=O)(O)OC[C@H](N)C(=O)O

["inactive", "inactive", "< 3%", "17.7%", "5.3%", "inactive", "9.5%"]

* * *

# tested.system: UniProtKB Q9R1K6
# assay.remarks: Agonist activity at mouse GPR34 expressed in HEK293A cells cotransfected with chimeric Galphaq/il after 1.5 hrs by alkaline phosphatase tagged-TGFalpha shedding assay
# Format: cell-based, HEK293-A
# details: read-out: EC50
metric.name: EC50 (nM)
Give bare numbers, in nM.

Hey, can you go through the list below and give me EC50 for every item?
1. CCCCCCCCCCCOc1ccccc1CCC(=O)OC[C@H]1OCCC[C@@H]1OP(=O)(O)OC[C@H](N)C(=O)O
2. CCCCCCCC/C=C\CCCCCCCC(=O)OC[C@@H]1OCCC[C@@H]1OP(=O)(O)OC[C@@H](N)C(=O)O (single isomer, unassigned)

[640, 210]

I have 2 molecules here; please give me EC50 for each one.
1. CCCCCCCCCCCOc1ccccc1CCC(=O)OC[C@H]1OCC=C[C@H]1OP(=O)(O)OC[C@H](N)C(=O)O
2. N[C@@H](COP(=O)(O)O[C@H]1CCCO[C@@H]1COC(=O)CCc1ccccc1OCc1cccc(Oc2ccccc2)c1)C(=O)O

1: 510; 2: 340

* * *

# tested.system: Putative P2Y purinoceptor 10 (Mus musculus)
# assay.remarks: Agonist activity at mouse P2Y10 receptor expressed in rat McA-RH7777 cells assessed as induction of actin stress fiber formation at 100 nM after 30 mins by Alexa fluor 594-labelled phalloidin/DAPI staining based fluorescence microscopy
# Type: cell-based
Calls of active or inactive are those of the source. No cut-off for these calls is given here.
Reply using exactly one outcome from active, inactive

Examples from the recorded data:
Hi, sorry to bother you, what did the test record for `CCCCCCCCCCCOc1ccccc1CCC(=O)OCc1ccccc1OP(=O)(O)OC[C@H](N)C(=O)O` ?
active

What is the recorded call for this compound in the test? `N[C@@H](COP(=O)(O)OC[C@H]1OCCC[C@H]1OC(=O)CCc1ccccc1OCc1cccc(Oc2ccccc2)c1)C(=O)O`
inactive

Per the assay record, what outcome was assigned to `CCCCCCCCCCCOc1ccccc1CCC(=O)OCc1cccc(OP(=O)(O)OC[C@H](N)C(=O)O)c1` ?
active

Give the logged outcome of this assay for the following compound: `CCCCCCCCCCCOc1ccccc1CCC(=O)OC[C@H]1OCC=C[C@H]1OP(=O)(O)OC[C@H](N)C(=O)O`
active

Kindly provide the recorded test outcome for the following compound: `CCCCCCCCCCCOc1ccccc1CCC(=O)OC[C@H]1OCC=C[C@@H]1OP(=O)(O)OC[C@H](N)C(=O)O`
active

Further cases:
Can you look up the reported call for `CCCCCCCC/C=C\CCCCCCCC(=O)OC[C@@H](O)COP(=O)(O)OC[C@H](N)C(=O)O` for me?
active

What call does the record list for `N[C@@H](COP(=O)(O)O[C@@H]1CCCO[C@@H]1COC(=O)CCc1ccccc1OCc1cccc(Oc2ccccc2)c1)C(=O)O` ?
inactive

State the result this test recorded for `CCCCCCCCCCCOc1ccccc1CCC(=O)OCc1ccc(OP(=O)(O)OC[C@H](N)C(=O)O)cc1` .
inactive

* * *

# tested.system: Probable G-protein coupled receptor 34 (Mus musculus)
# Sequence (Q9R1K6 whole entry): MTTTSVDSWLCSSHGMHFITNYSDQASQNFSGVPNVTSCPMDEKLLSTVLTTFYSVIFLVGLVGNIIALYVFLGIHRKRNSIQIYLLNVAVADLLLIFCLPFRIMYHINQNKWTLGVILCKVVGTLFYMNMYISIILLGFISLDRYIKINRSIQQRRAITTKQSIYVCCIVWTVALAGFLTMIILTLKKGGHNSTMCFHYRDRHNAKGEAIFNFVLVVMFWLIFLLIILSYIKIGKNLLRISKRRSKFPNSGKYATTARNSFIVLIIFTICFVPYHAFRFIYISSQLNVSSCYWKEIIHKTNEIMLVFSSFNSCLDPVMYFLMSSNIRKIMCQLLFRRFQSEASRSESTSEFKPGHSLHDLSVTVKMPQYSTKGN
# assay.remarks: Intrinsic activity at mouse GPR34 expressed in HEK293A cells cotransfected with chimeric Galphaq/il after 1.5 hrs by alkaline phosphatase tagged-TGFalpha shedding assay relative to O-(Hydroxy(((2R,3R)-2-(((3-(2-((3-phenoxybenzyl)oxy)phenyl)-propanoyl)oxy)methyl)tetrahydro-2H-pyran-3-yl)oxy)phosphoryl)-L-serine
# Format: cell-based
# details: HEK293-A
metric.name: Intrinsic activity

Sample records with Intrinsic activity:
Give Intrinsic activity (Probable G-protein coupled receptor 34 (Mus musculus)) of the following compound: `Cc1ccc(Oc2cccc(COc3ccccc3CCC(=O)OC[C@H]3OCCC[C@H]3OP(=O)(O)OC[C@H](N)C(=O)O)c2)cc1`
3.6

# get_value(readout= Intrinsic activity, system= Probable G-protein coupled receptor 34 (Mus musculus)) for `Cc1ccc(Oc2cccc(COc3ccccc3CCC(=O)O[C@@H]3CCCO[C@@H]3COP(=O)(O)OC[C@H](N)C(=O)O)c2)cc1`
1.9

--- query ---
Can you look up Intrinsic activity on Probable G-protein coupled receptor 34 (Mus musculus) for `N[C@@H](COP(=O)(O)O[C@H]1CCCO[C@@H]1COC(=O)CCc1ccccc1OCc1cccc(Oc2ccccc2)c1)C(=O)O` ?
0.24

* * *

Would you kindly list EC50 for each of these compounds?
# tested.system: Probable G-protein coupled receptor 34 (Mus musculus)
# assay.remarks: Agonist activity at mouse GPR34 expressed in HEK293A cells cotransfected with chimeric Galphaq/il after 1.5 hrs by alkaline phosphatase tagged-TGFalpha shedding assay
# Type: cell-based, HEK293-A
# details: read-out: EC50

Before answering, review these 3 worked examples.
Any idea what EC50 was measured for `N[C@@H](COP(=O)(O)OC[C@H]1OCCC[C@@H]1OC(=O)CCc1ccccc1OCc1cccc(Oc2ccccc2)c1)C(=O)O` ?
> 1000 nM

Dear colleague, I am looking for the recorded EC50 of the following compound: `N[C@@H](COP(=O)(O)O[C@H]1C=CCO[C@@H]1COC(=O)CCc1ccccc1OCc1cccc(Oc2ccccc2)c1)C(=O)O`
460 nM

Value lookup for EC50; key = `N[C@@H](COP(=O)(O)OC[C@H]1OCCC[C@H]1OC(=O)CCc1ccccc1OCc1cccc(Oc2ccccc2)c1)C(=O)O`
190 nM

Please find the next compound below.
Record request: EC50 value, item `Cc1ccc(Oc2cccc(COc3ccccc3CCC(=O)OC[C@H]3OCCC[C@H]3OP(=O)(O)OC[C@H](N)C(=O)O)c2)cc1`
36 nM
